Test system: HCC827
Assay: Anti-proliferative activity against human HCC827 cells assessed as cell inhibition measured after 72 hrs in presence of 100 nM JQ1 by MTT assay
Format: functional, cell-based
Conditions: HCC827, 72 h
metric: pIC50
Expect pIC50 as a plain number equal to -log10 of the molar concentration.

The reported pIC50 of the molecule CC(=O)N1CCC(NC(=O)c2ccc3cc2OCCCCCCOc2cc(ccc2F)-c2nc(ncc2F)N3)CC1 was 7.51

====

Tested on: HCC827
Experiment: Anti-proliferative activity against human HCC827 cells assessed as cell inhibition measured after 72 hrs in presence of 500 nM JQ1 by MTT assay
Assay type: functional, cell-based
Settings: HCC827, 72 h
metric: IC50 (nM)
All answers are understood in nM, so give the number only.

The reported IC50 of the compound CC(=O)N1CCC(NC(=O)c2ccc3cc2OCCCCCCOc2cc(ccc2F)-c2nc(ncc2F)N3)CC1 was 9.7
